- System: Anopheles stephensi
- assayNotes: Anopheles stephensi treated well plate contact test: knockdown and mortality
- Assay type: in vivo
- conditionDetails: test compound 0.2 ppm plus 2 ppm TFNA-AM, after 48 hours
testReadout: mortality % 48, with TFNA-AM (%)
Answer with a number only, understood to be in %.

Please review the entries below; each comes with its answer.
molecule	measurementUnit	mortality % 48, with TFNA-AM
CCC(Nc1ncnc(C)c1Cl)c1ccc(OC(F)F)cc1 (stereo not shown)	%	10
Nc1nc(N)nc(NC2CC2)n1	%	0
CN/C(=N\[N+](=O)[O-])NCc1cnc(Cl)s1	%	0
CCOc1ccc(C(C)(C)COCc2cccc(Oc3ccccc3)c2)cc1	%	100
CN(C(=O)c1ccccc1)c1cccc(C(=O)Nc2c(Br)cc(C(F)(C(F)(F)F)C(F)(F)F)cc2C(F)(F)F)c1F [Broflanilide]	%	93

**Q:** Can you look up the measured mortality % 48, with TFNA-AM of "COP(=S)(OC)Oc1ccc([N+](=O)[O-])c(C)c1" for me?
**A:** 100

**Q:** // query mortality % 48, with TFNA-AM value for entry N#Cc1ccc(CC(=NNC(=O)Nc2ccc(OC(F)(F)F)cc2)c2cccc(C(F)(F)F)c2)cc1 (mixture of isomers)
**A:** 60

**Q:** # mortality % 48, with TFNA-AM lookup, item Cc1cc(C(F)(C(F)(F)F)C(F)(F)F)ccc1NC(=O)c1cccc(I)c1C(=O)NC(C)(C)CS(C)(=O)=O [Flubendiamide]
**A:** 40

**Q:** Looking for the measured mortality % 48, with TFNA-AM of CC(C)=C[C@@H]1[C@@H](C(=O)O[C@H](C#N)c2cccc(Oc3ccccc3)c2)C1(C)C (relative stereo) [d-d, trans cyphenothrin] , can you help?
**A:** 100

====

- Test system: Anopheles stephensi
- assayNotes: Anopheles stephensi treated well plate contact test: knockdown and mortality
- Assay type: in vivo
- conditionDetails: test compound 0.2 ppm plus 2 ppm TFNA-AM, after 24 hours
Friendly reminder: mortality % 24, with TFNA-AM below 20% is Fulfilled, at or above is Not fulfilled.

Worked set:
compound	classLabel
CCOc1cc(C(C)(C)C)ccc1C1COC(c2c(F)cccc2F)=N1 (centres unmarked)	Not fulfilled
CNC(=O)Oc1cccc2c1OC(C)(C)O2	Not fulfilled
Cc1c(COC(=O)[C@@H]2[C@H](/C=C(\Cl)C(F)(F)F)C2(C)C)cccc1-c1ccccc1 (racemic)	Not fulfilled

**Q:** Quick check: mortality % 24, with TFNA-AM of CC(c1ccc(C(F)(F)F)nc1)S(C)(=O)=NC#N (centres unmarked) under 20%?
**A:** Fulfilled

====

- System: Anopheles stephensi
- assayNotes: Anopheles stephensi treated well plate contact test: knockdown and mortality
- Assay type: in vivo
- conditionDetails: test compound 200 ppm, without TFNA-AM, knockdown after 1 hour, adult females
testReadout: Knock Down, without TFNA-AM
The answer consists of two parts: a number and, after it, its unit.

// known answers, use as guide
> print(dat)
                                   molecule  result
1  CN(C(=O)c1ccccc1)c1cccc(C(=O)Nc2c(Br)cc(C(F)(C(F)(F)F)C(F)(F)F)cc2C(F)(F)F)c1F [Broflanilide]      0%
2  O=C1C=C(N(Cc2ccc(Cl)nc2)CC(F)F)CO1 [Flupyradifurone]      0%
3  CO/C=C(/C(=O)OC)c1ccccc1COc1cccc(C(F)(F)F)n1 [Picoxystrobin]    100%
4  O=c1c(-c2cccc(C(F)(F)F)c2)c([O-])[n+](Cc2cncnc2)c2ccccn12 [Triflumizopyrim]      0%

Below: the item to evaluate.
**Q:** Recorded Knock Down, without TFNA-AM for N#Cc1ccc(CC(=NNC(=O)Nc2ccc(OC(F)(F)F)cc2)c2cccc(C(F)(F)F)c2)cc1 (mixture of isomers) [Metaflumizone] with Anopheles stephensi, please?
**A:** 0%
